Could you please report measured IC50 for the items listed next?
tgt: BRD4 BD2 (Homo sapiens, UniProt O60885)
test: AlphaScreen binding assay, BRD4 Bromodomain 2

Entry COC(=O)Nc1ccc(-c2ccc3c(c2)N(C(=O)c2ccco2)C[C@H](C)N3C(C)=O)cc1 [Example I-414] has what IC50?
< 50 nM

Entry CC(=O)N1c2ccc(-c3ncc(N)s3)cc2N(C(=O)c2ccco2)C[C@@H]1C [Example I-431] has what IC50?
> 500 nM

Entry CC(=O)N1c2ccccc2N(Cc2ccc(-c3ccccc3)cc2)C[C@@H]1C [Example I-916] has what IC50?
> 500 nM

Entry COc1c(OC(=O)N2C[C@H](C)N(C(C)=O)c3ccc(-c4cnn(C5CC5)c4)cc32)ccnc1C [Example I-522] has what IC50?
50 to 500 nM

Entry COC(=O)N1c2ccc(-c3cnn(C(C)(C)C)c3)cc2N(C(=O)OC(C)C)C[C@@H]1C [Example I-332] has what IC50?
> 500 nM

Entry CCS(=O)(=O)c1ccc(-c2ccc3c(c2)N(C(=O)OC2CCOCC2)C[C@H](C)N3C(C)=O)cc1 [Example I-1214] has what IC50?
50 to 500 nM

Entry CC(=O)N1c2ccc(-c3ccc(N4CCCC4=O)cc3)cc2N(C(=O)C2CCC2)C[C@@H]1C [Example I-1132] has what IC50?
50 to 500 nM
